Give measured pEC50 for each item. Keep answers brief.
Tested Target: THR alpha-LBD (Homo sapiens)
Construct: except that THR alpha-LBD of a final concentration 0.25 nM was used; purchased Invitrogen PV4687
Run Description: THR-α Coactivator Peptide Recruitment Assay (LanthaScreen TR-FRET)
Type: biochemical
Stated Conditions: TR-FRET coactivator recruitment, THR alpha-LBD 0.25 nM; read-out: THRα EC50
pEC50: −log10 of the molar value.

q: // lookup pEC50 for O=C(NCC1(NS(=O)(=O)c2cc(Oc3c(Cl)cc(-n4nc(C(F)F)c(=O)[nH]c4=O)cc3Cl)ncc2O)CC1)C1CC1
a: 6.00 to 6.70

q: // lookup pEC50 for O=c1[nH]c(=O)n(-c2cc(Cl)c(Oc3ccc(O)c(S(=O)(=O)N4CCC(F)(F)CC4)c3)c(Cl)c2)nc1C(F)F
a: > 8.70

q: // lookup pEC50 for O=c1[nH]c(=O)n(-c2cc(Cl)c(Oc3cc(S(=O)(=O)C4CC4)c(O)cn3)c(Cl)c2)nc1C(F)F
a: 6.70 to 8.70

q: // lookup pEC50 for O=c1[nH]c(=O)n(-c2cc(Cl)c(Oc3cc(S(=O)(=O)NC4CCCC4)c(O)cn3)c(Cl)c2)nc1C(F)F
a: 6.70 to 8.70

* * *

Tested Target: THR beta-LBD (Homo sapiens, UniProt P10828)
Construct: THR beta-LBD (the final concentration is 0.5 nM) was added to the 384-well assay plate; purchased Invitrogen PV4686
Sequence (P10828 217-461 limits assumed): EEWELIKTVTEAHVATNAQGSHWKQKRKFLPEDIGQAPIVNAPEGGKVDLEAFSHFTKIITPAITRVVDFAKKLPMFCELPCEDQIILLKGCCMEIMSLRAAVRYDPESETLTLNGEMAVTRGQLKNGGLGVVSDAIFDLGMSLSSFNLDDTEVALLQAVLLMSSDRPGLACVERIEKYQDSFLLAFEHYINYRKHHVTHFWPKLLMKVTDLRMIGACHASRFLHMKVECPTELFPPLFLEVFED
Run Description: THR-β Coactivator Peptide Recruitment Assay (LanthaScreen TR-FRET)
Assay type: biochemical
Stated Conditions: TR-FRET coactivator recruitment, THR beta-LBD 0.5 nM
Readout Name: THRβ Emax

In the examples that follow, each entry is paired with its recorded THRβ Emax.
O=c1[nH]c(=O)n(-c2cc(Cl)c(Oc3cc(S(=O)(=O)C4CC4)c(O)cn3)c(Cl)c2)nc1C(F)F: B (75~90)
CS(=O)(=O)NC1CN(S(=O)(=O)c2cc(Oc3c(Cl)cc(-n4nc(C(F)F)c(=O)[nH]c4=O)cc3Cl)ccc2O)C1: C (<75)
O=C(CNS(=O)(=O)c1cc(Oc2c(Cl)cc(-n3nc(C(F)F)c(=O)[nH]c3=O)cc2Cl)ccc1O)NCC(F)F: B (75~90)
O=c1[nH]c(=O)n(-c2cc(Cl)c(Oc3cc(S(=O)(=O)N4CC(O)C4)c(O)cn3)c(Cl)c2)nc1C(F)F: B (75~90)

Switching to the query record.
q: // map CS(=O)(=O)N1CC(NS(=O)(=O)c2cc(Oc3c(Cl)cc(-n4nc(C(F)F)c(=O)[nH]c4=O)cc3Cl)ccc2O)C1 to recorded THRβ Emax (system: THR beta-LBD (Homo sapiens, UniProt P10828))
a: C (<75)

* * *

Give measured EC50 for each item. Keep answers brief.
Tested Target: THR alpha-LBD (Homo sapiens, UniProt P10827)
Construct: except that THR alpha-LBD of a final concentration 0.25 nM was used; purchased Invitrogen PV4687
Sequence (P10827 163-410 isoform P10827-2 limits assumed, other chains not shown): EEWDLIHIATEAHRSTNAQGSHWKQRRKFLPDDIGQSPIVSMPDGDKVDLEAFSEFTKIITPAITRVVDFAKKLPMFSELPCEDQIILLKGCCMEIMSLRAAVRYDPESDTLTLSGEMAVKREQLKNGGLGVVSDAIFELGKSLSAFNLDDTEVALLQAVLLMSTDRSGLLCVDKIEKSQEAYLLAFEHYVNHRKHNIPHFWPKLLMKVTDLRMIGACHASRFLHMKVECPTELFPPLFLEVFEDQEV
Run Description: THR-α Coactivator Peptide Recruitment Assay (LanthaScreen TR-FRET)
Type: biochemical
Stated Conditions: TR-FRET coactivator recruitment, THR alpha-LBD 0.25 nM; read-out: THRα EC50

q: // lookup EC50 for O=c1[nH]c(=O)n(-c2cc(Cl)c(Cc3cc(S(=O)(=O)N[C@H]4C[C@H](O)C4)c(O)cn3)c(Cl)c2)nc1C(F)F
a: > 1000 nM

q: // lookup EC50 for CNC(=O)N1CC(NS(=O)(=O)c2cc(Oc3c(Cl)cc(-n4nc(C(F)F)c(=O)[nH]c4=O)cc3Cl)ccc2O)C1
a: > 1000 nM

q: // lookup EC50 for CC(C)(O)CNS(=O)(=O)c1cc(Oc2c(Cl)cc(-n3nc(C(F)F)c(=O)[nH]c3=O)cc2Cl)ncc1O
a: > 1000 nM

q: // lookup EC50 for O=c1[nH]c(=O)n(-c2cc(Cl)c(Oc3cc(S(=O)(=O)NC4CC(F)(F)C4)c(O)cn3)c(Cl)c2)nc1C(F)F
a: 2 to 200 nM

q: // lookup EC50 for O=c1[nH]c(=O)n(-c2cc(Cl)c(Oc3ccc(O)c(S(=O)(=O)N[C@H]4CCOC4)c3)c(Cl)c2)nc1C(F)F
a: 2 to 200 nM

q: // lookup EC50 for CS(=O)(=O)c1cc(Oc2c(Cl)cc(-n3nc(C(F)F)c(=O)[nH]c3=O)cc2Cl)ncc1O
a: 2 to 200 nM

q: // lookup EC50 for O=C(NC12CC3(F)CC(F)(CC(F)(C3)C1)C2)c1cc(Oc2c(Cl)cc(-n3nc(C(F)F)c(=O)[nH]c3=O)cc2Cl)ccc1O
a: > 1000 nM

q: // lookup EC50 for CS(=O)(=O)NC1CN(S(=O)(=O)c2cc(Oc3c(Cl)cc(-n4nc(C(F)F)c(=O)[nH]c4=O)cc3Cl)ccc2O)C1
a: 2 to 200 nM

q: // lookup EC50 for O=C(NC12CC(NS(=O)(=O)c3cc(Oc4c(Cl)cc(-n5nc(C(F)F)c(=O)[nH]c5=O)cc4Cl)ccc3O)(C1)C2)C1CC1
a: > 1000 nM

q: // lookup EC50 for CNS(=O)(=O)c1cc(Oc2c(Cl)cc(-n3nc(C#N)c(=O)[nH]c3=O)cc2Cl)ncc1O
a: 200 to 1000 nM

q: // lookup EC50 for CS(=O)(=O)c1cc(Oc2c(Cl)cc(-n3nc(C(F)F)c(=O)[nH]c3=O)cc2Cl)ccc1O
a: < 2 nM

q: // lookup EC50 for O=C(NC1CCC1)C1(NS(=O)(=O)c2cc(Oc3c(Cl)cc(-n4nc(C(F)F)c(=O)[nH]c4=O)cc3Cl)ccc2O)CC1
a: 2 to 200 nM

q: // lookup EC50 for O=c1[nH]c(=O)n(-c2cc(Cl)c(Oc3cc(S(=O)(=O)NC4CC4)c(O)cn3)c(Cl)c2)nc1C(F)F
a: 2 to 200 nM

q: // lookup EC50 for CC1(C)CC(NS(=O)(=O)c2cc(Oc3c(Cl)cc(-n4nc(C(F)F)c(=O)[nH]c4=O)cc3Cl)ncc2O)C1
a: 200 to 1000 nM

q: // lookup EC50 for O=c1[nH]c(=O)n(-c2cc(Cl)c(Oc3ccc(O)c(S(=O)(=O)NC45CC(O)(C4)C5)c3)c(Cl)c2)nc1C(F)F
a: 2 to 200 nM

q: // lookup EC50 for CNC(=O)CNS(=O)(=O)c1cc(Oc2c(Cl)cc(-n3nc(C(F)F)c(=O)[nH]c3=O)cc2Cl)ccc1O
a: 2 to 200 nM

q: // lookup EC50 for O=c1[nH]c(=O)n(-c2cc(Cl)c(Oc3ccc(O)c(S(=O)(=O)NC[C@H]4C[C@H](O)C4)c3)c(Cl)c2)nc1C(F)F
a: 2 to 200 nM

q: // lookup EC50 for CNS(=O)(=O)c1cc(Oc2c(Cl)cc(-n3nc(C(F)F)c(=O)[nH]c3=O)cc2Cl)ccc1O
a: < 2 nM

q: // lookup EC50 for O=c1[nH]c(=O)n(-c2cc(Cl)c(Oc3ccc(O)c(S(=O)(=O)NC4CS(=O)(=O)C4)c3)c(Cl)c2)nc1C(F)F
a: 2 to 200 nM

q: // lookup EC50 for O=C(NCC(F)F)C1(NS(=O)(=O)c2cc(Oc3c(Cl)cc(-n4nc(C(F)F)c(=O)[nH]c4=O)cc3Cl)ncc2O)CC1
a: > 1000 nM

q: // lookup EC50 for O=c1[nH]c(=O)n(-c2cc(Cl)c(Oc3ccc(O)c(S(=O)(=O)N4CCC4)c3)c(Cl)c2)nc1C(F)F
a: < 2 nM

q: // lookup EC50 for CN([C@H]1C[C@H](O)C1)S(=O)(=O)c1cc(Oc2c(Cl)cc(-n3nc(C(F)F)c(=O)[nH]c3=O)cc2Cl)ccc1O
a: 2 to 200 nM

q: // lookup EC50 for O=c1[nH]c(=O)n(-c2cc(Cl)c(Oc3cc(S(=O)(=O)N[C@@H]4CC[C@H]4O)c(O)cn3)c(Cl)c2)nc1C(F)F (stereo in doubt)
a: 200 to 1000 nM

q: // lookup EC50 for Cc1cc(-n2nc(C(F)F)c(=O)[nH]c2=O)cc(C)c1Oc1cc(S(=O)(=O)N[C@H]2C[C@H](O)C2)c(O)cn1
a: > 1000 nM

q: // lookup EC50 for Cc1nn(-c2cc(Cl)c(Oc3cc(S(=O)(=O)N[C@@H]4CCOC4)c(O)cn3)c(Cl)c2)c(=O)[nH]c1=O
a: 200 to 1000 nM

q: // lookup EC50 for O=C(N[C@H]1C[C@@H](NS(=O)(=O)c2cc(Oc3c(Cl)cc(-n4nc(C(F)F)c(=O)[nH]c4=O)cc3Cl)ccc2O)C1)C1CC1
a: 200 to 1000 nM
